Species: Homo sapiens
PROTOCOL DETAILS: Selectivity ratio of Ki for human prostanoid EP2 receptor to Ki for human prostanoid EP4
Readings of Ratio Ki for the listed compounds

Example entries begin here.
| CHEMICAL STRING | MEASURED METRIC | RESULT |
| --- | --- | --- |
| Cc1ccc(CN2CCc3cccc(C(=O)N[C@@H](C)c4ccc(C(=O)O)cc4)c32)cc1 | Ratio Ki | > 1000 |
| C[C@H](NC(=O)c1cccc2c1N(Cc1ccc(C(C)(C)C)cc1)CC2)c1ccc(C(=O)O)cc1 | Ratio Ki | > 692 |
| C[C@H](NC(=O)c1cccc2c1N(Cc1ccc(OC(F)(F)F)cc1)CC2)c1ccc(C(=O)O)cc1 | Ratio Ki | 687 |
| C[C@H](NC(=O)c1cccc2c1N(Cc1ccc(C(N)=O)cc1)CC2)c1ccc(C(=O)O)cc1 | Ratio Ki | > 1000 |

Attention now turns to another entry.
Data request: Look up and state reported Ratio Ki for C[C@H](NC(=O)c1cccc2c1N(Cc1ccc(Cl)cc1Br)CC2)c1ccc(C(=O)O)cc1
Data returned: > 1000

Data origin, for the record: ChEMBL document CHEMBL1641558
